As shown below, each of these compounds has a reported LD50 at 24 h value.
- assay-procedure: Acute toxicity (LD50) in the mouse
- condition-set: in vivo, ip, 24 hrs, solubilized with the aid of dilute acid, read-out: Approximate Acute Toxicity (24 hrs.) In the Mouse, LD50

Asked: I'd like to know its LD50 at 24 h. The compound in question is CCc1cccc(CC)c1C(=O)Nc1cccc2c1CCN(C)C2
Given back: 125 to 250 mg/kg

Asked: I'd like to know its LD50 at 24 h. The compound in question is Cc1cccc(C)c1C(=O)Nc1cccc2c1CCN(C)C2
Given back: 125 to 250 mg/kg

Asked: I'd like to know its LD50 at 24 h. The compound in question is CCCN1CCc2c(cccc2NC(=O)c2ccc(OC)cc2)C1
Given back: 125 to 250 mg/kg

Asked: I'd like to know its LD50 at 24 h. The compound in question is CN1CCc2c(cccc2NC(=O)c2ccccc2[N+](=O)[O-])C1
Given back: 125 to 250 mg/kg

Let us examine a further case.
Asked: I'd like to know its LD50 at 24 h. The compound in question is CN1CCc2c(cccc2NC(=O)c2ccccc2I)C1
Given back: < 31 mg/kg
